Please respond with reported viability, T/C for every item in the list.
test system: LG0703-F498-PDC complex spheroid growth; assay: Anticancer human tumor LG0703-F498-PDC patient-derived lung adenocarcinoma cell line growth inhibition [AhR]; conditions: second compound 10 µM; first compound 0.1 µM; active compounds read low;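 note: luminescence taken as a proxy for viable cell amount; percent of DMSO vehicle control where 100% means growth equal to vehicle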
Numbers only, in %.

Some solved cases for reference:
Kindly indicate its recorded viability, T/C. Item: Nc1ccccc1NC(=O)c1ccc(CNC(=O)OCc2cccnc2)cc1 + Cc1cncc(-c2nc(NCCc3c[nH]c4ccccc34)c3ncn(C(C)C)c3n2)c1
0.81

Kindly indicate its recorded viability, T/C. Item: CC1COCCN1c1cc(-c2ccnn2C)c2ccnc(-c3ccn[nH]3)c2n1 (centres undefined) + Cc1cncc(-c2nc(NCCc3c[nH]c4ccccc34)c3ncn(C(C)C)c3n2)c1
1.71

Kindly indicate its recorded viability, T/C. Item: Nc1ccn(C2OC(CO)C(O)C2(F)F)c(=O)n1 (centres undefined) + CC(CO)NC(=O)c1cc(-c2ccc(Cl)cc2)nn(-c2cnn(C)c2)c1=O
40.5

Please supply viability, T/C for each of the following items, keeping them in order.
1. Nc1ccccc1NC(=O)c1ccc(CNC(=O)OCc2cccnc2)cc1 + Cc1ccccc1N=Nc1ccc(NC(=O)c2ccnn2C)c(C)c1
2. CC[C@@]1(O)C(=O)OCc2c1cc1n(c2=O)Cc2cc3c(CN(C)C)c(O)ccc3nc2-1 + Cc1ccccc1N=Nc1ccc(NC(=O)c2ccnn2C)c(C)c1
3. Nc1ccccc1NC(=O)c1ccc(CNC(=O)OCc2cccnc2)cc1 + CC(CO)NC(=O)c1cc(-c2ccc(Cl)cc2)nn(-c2cnn(C)c2)c1=O
4. CC1(C)CCC(CN2CCN(c3ccc(C(=O)NS(=O)(=O)c4ccc(NCC5CCOCC5)c([N+](=O)[O-])c4)c(Oc4cnc5[nH]ccc5c4)c3)CC2)=C(c2ccc(Cl)cc2)C1 + CC(CO)NC(=O)c1cc(-c2ccc(Cl)cc2)nn(-c2cnn(C)c2)c1=O

88.6
60.2
77
80.1

Please supply viability, T/C for each of the following items, keeping them in order.
1. Nc1ncn(C2CC(O)C(CO)O2)c(=O)n1 (centres undefined) + Cc1ccccc1N=Nc1ccc(NC(=O)c2ccnn2C)c(C)c1
2. COc1cccc2c1C(=O)c1c(O)c3c(c(O)c1C2=O)CC(O)(C(=O)CO)CC3OC1CC(N)C(O)C(C)O1 (centres undefined) + Cc1ccccc1N=Nc1ccc(NC(=O)c2ccnn2C)c(C)c1
3. CC(C)c1c(-c2ccccc2)nc2c(C#N)c[nH]n2c1=O + Cc1cncc(-c2nc(NCCc3c[nH]c4ccccc34)c3ncn(C(C)C)c3n2)c1
4. CC1COCCN1c1cc(-c2ccnn2C)c2ccnc(-c3ccn[nH]3)c2n1 (centres undefined) + Cc1ccccc1N=Nc1ccc(NC(=O)c2ccnn2C)c(C)c1
5. Cn1ncnc1C1c2n[nH]c(=O)c3cc(F)cc(c23)NC1c1ccc(F)cc1 (centres undefined) + Cc1ccccc1N=Nc1ccc(NC(=O)c2ccnn2C)c(C)c1
6. CC(C)c1c(-c2ccccc2)nc2c(C#N)c[nH]n2c1=O + Cc1ccccc1N=Nc1ccc(NC(=O)c2ccnn2C)c(C)c1
7. COc1cccc2c1C(=O)c1c(O)c3c(c(O)c1C2=O)CC(O)(C(=O)CO)CC3OC1CC(N)C(O)C(C)O1 (centres undefined) + Cc1cncc(-c2nc(NCCc3c[nH]c4ccccc34)c3ncn(C(C)C)c3n2)c1

1. 72.4
2. 82.3
3. 1.01
4. 72.9
5. 79.5
6. 75.6
7. 2.97
